molecular target: Aryl hydrocarbon receptor (Homo sapiens) (UniProt P35869); assay: qHTS assay to identify small molecule that activate the aryl hydrocarbon receptor (AhR) signaling pathway (AID 743085); details: HepG2 AhR-luc (HG2L7.5c1), luciferase, 24 h; series mostly up to 70.3 µM; also: nearly all actives have a fitted effect of over 15% in size; also: potency is read from the fitted curve at half-maximal effect;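 as to activation: HG2L7.5c1 human HepG2 liver cells with stably integrated DRE-driven firefly reporter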
Sequence (P35869 whole entry, looked up): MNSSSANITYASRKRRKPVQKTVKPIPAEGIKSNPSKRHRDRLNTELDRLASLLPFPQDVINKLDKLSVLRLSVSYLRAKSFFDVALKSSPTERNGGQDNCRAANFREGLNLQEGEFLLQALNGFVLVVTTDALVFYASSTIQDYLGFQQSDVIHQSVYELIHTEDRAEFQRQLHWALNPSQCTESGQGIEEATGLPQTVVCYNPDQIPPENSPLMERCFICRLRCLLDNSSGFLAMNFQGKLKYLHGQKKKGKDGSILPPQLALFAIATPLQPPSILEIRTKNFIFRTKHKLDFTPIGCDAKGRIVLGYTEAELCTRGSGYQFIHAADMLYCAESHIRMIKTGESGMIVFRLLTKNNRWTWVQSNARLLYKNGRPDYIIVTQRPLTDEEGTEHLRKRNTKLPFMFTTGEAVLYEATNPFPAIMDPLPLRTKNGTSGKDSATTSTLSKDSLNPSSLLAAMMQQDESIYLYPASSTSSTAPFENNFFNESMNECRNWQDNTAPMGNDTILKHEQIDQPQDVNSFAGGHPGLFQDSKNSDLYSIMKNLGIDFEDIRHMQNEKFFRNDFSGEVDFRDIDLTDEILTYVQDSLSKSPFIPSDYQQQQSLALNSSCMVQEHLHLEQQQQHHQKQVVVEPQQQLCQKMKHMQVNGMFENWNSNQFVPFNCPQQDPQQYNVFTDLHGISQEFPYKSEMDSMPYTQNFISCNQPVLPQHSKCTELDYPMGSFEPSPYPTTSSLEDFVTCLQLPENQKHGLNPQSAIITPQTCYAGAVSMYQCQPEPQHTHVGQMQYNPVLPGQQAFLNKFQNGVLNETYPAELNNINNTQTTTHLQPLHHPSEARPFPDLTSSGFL
Inconclusive results are not listed. Active and inactive are the calls of the source. Calls follow the shape of the dose curve; as a rule, active = well fitted activation curve with a large enough effect in the repeat runs; inconclusive = weak or mixed curves; inactive = no such curve, though single readings can be large or run the other way.
propertyName: Potency

{"compound": "ClC(Cl)C(Cl)Cl", "Potency": "inactive"}
{"compound": "COC(C)(C)C", "Potency": "inactive"}
{"compound": "NC(=O)c1cc([N+](=O)[O-])cc([N+](=O)[O-])c1", "Potency": "inactive"}
{"compound": "CCOP(=S)(OCC)Oc1ncn(-c2ccccc2)n1", "Potency": "24.3 µM (active)"}
{"compound": "O=C(N[C@H]1CN2CCC1CC2)c1cc2ccoc2cn1", "Potency": "inactive"}

In: I have this compound here, CC(C)CP(=S)(S)CC(C)C , and I need its recorded Potency.
Out: inactive

In: I have this compound here, CC1CCCCC1NC(=O)Nc1ccccc1 (stereo unspecified) , and I need its recorded Potency.
Out: inactive

In: I have this compound here, C(CCOCC1CO1)COCC1CO1 (stereo unspecified) , and I need its recorded Potency.
Out: inactive

---

assay: qHTS assay for small molecule agonists of the antioxidant response element (ARE) signaling pathway - cell viability counter screen (AID 743203); conditions: ARE-bla HepG2 viability, CellTiter-Glo luminescence, 16 h; series mostly up to 73.3 µM; also: nearly all actives have a fitted effect of over 55% in size
Records with an inconclusive call do not appear. The source made the active and inactive calls. The call rests on the fitted dose curve.
propertyName: outcome

{"molecule": "CCNc1nc(NC(C)C)nc(OC)n1", "propertyName": "outcome", "reportedResult": "inactive"}
{"molecule": "CCOP(=O)(N=C1SCCS1)OCC", "propertyName": "outcome", "reportedResult": "inactive"}
{"molecule": "CC(C)CC(N(C)C)C1(c2ccc(Cl)cc2)CCC1 (stereo unspecified)", "propertyName": "outcome", "reportedResult": "inactive"}
{"molecule": "O=CNC(N1CCN(C(NC=O)C(Cl)(Cl)Cl)CC1)C(Cl)(Cl)Cl (stereo unspecified)", "propertyName": "outcome", "reportedResult": "inactive"}
{"molecule": "CCC(C)(C)c1cc(-n2nc3ccccc3n2)c(O)c(C(C)(C)CC)c1", "propertyName": "outcome", "reportedResult": "inactive"}

In: I have this molecule here, CCN(CC)C(C)C(=O)c1ccccc1 (stereo unspecified) , and I need its recorded outcome.
Out: inactive

In: I have this molecule here, CC(CCc1ccccc1)NC(C)C(O)c1ccc(O)cc1 (stereo unspecified) , and I need its recorded outcome.
Out: inactive

In: I have this molecule here, CNC(=O)Oc1ccccc1C1OCCO1 , and I need its recorded outcome.
Out: inactive

In: I have this molecule here, CC(C)CP(=S)(S)CC(C)C , and I need its recorded outcome.
Out: inactive

In: I have this molecule here, COc1cc(OC)nc(Sc2cccc(Cl)c2C(=O)O)n1 , and I need its recorded outcome.
Out: inactive

---

assay: qHTS RealTime-Glo MT Cell Viability Assay in HEK293 cells - 24 hour (AID 1224886); details: RealTime-Glo luminescence; series mostly up to 76.8 µM; also: nearly all actives have a fitted effect of over 50% in size
Inconclusive results are not listed. Calls of active or inactive are those of the source. Calls follow the shape of the dose curve; as a rule, active = well fitted cell-killing curve with a large enough effect in the repeat runs; inconclusive = weak or mixed curves, or effect the other way; inactive = flat fitted curve, though single readings scatter.
Please reply with one of these outcomes: active, inactive

{"compound": "COP(=S)(OC)Oc1c(Cl)cc(C)cc1Cl", "discreteLabel": "inactive"}
{"compound": "COc1cc(OC)nc(NC(=O)NS(=O)(=O)c2ncccc2OCC(F)(F)F)n1", "discreteLabel": "inactive"}
{"compound": "CC1(C)CON(Cc2ccccc2Cl)C1=O", "discreteLabel": "inactive"}
{"compound": "C(CCOCC1CO1)COCC1CO1 (configuration not stated)", "discreteLabel": "inactive"}
{"compound": "[O]=[Cd]", "discreteLabel": "inactive"}

In: Identify the outcome logged in this assay for the compound shown: CC1CCC(=O)O1 (configuration not stated)
Out: inactive

In: Identify the outcome logged in this assay for the compound shown: N#CCNCC#N
Out: inactive

In: Identify the outcome logged in this assay for the compound shown: CCCSC(=O)N(CCC)CCC
Out: inactive

In: Identify the outcome logged in this assay for the compound shown: N#CCCC#N
Out: inactive

In: Identify the outcome logged in this assay for the compound shown: CCOP(=S)(OCC)Oc1ncn(-c2ccccc2)n1
Out: inactive

In: Identify the outcome logged in this assay for the compound shown: O=C(O)c1ccc2[nH]cc(CCCCN3CC=C(c4ccccc4)CC3)c2c1
Out: inactive

In: Identify the outcome logged in this assay for the compound shown: Clc1cccc(N2CCNCC2)c1
Out: inactive

In: Identify the outcome logged in this assay for the compound shown: CCCCc1ccc(O)cc1
Out: active

In: Identify the outcome logged in this assay for the compound shown: COc1cccc(C(=O)NN(C(=O)c2cc(C)cc(C)c2)C(C)(C)C)c1C
Out: inactive

In: Identify the outcome logged in this assay for the compound shown: CN/C(=N\[N+](=O)[O-])NCC1CCOC1 (configuration not stated)
Out: inactive

In: Identify the outcome logged in this assay for the compound shown: CC(=O)[C@H]1CC[C@H]2[C@@H]3CC[C@H]4C[C@H](O)CC[C@]4(C)[C@H]3C(=O)C[C@]12C
Out: inactive

In: Identify the outcome logged in this assay for the compound shown: ClCC(Cl)Cl
Out: inactive

---

assay: qHTS assay to identify small molecule agonists of the estrogen receptor alpha (ER-alpha) signaling pathway in the presence of an antagonist - cell viability counter screen (AID 1259386); settings: VM7Luc4E2 viability, CellTiter-Fluor fluorescence, 22 h; series mostly up to 92.4 µM;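 also: cells exposed to compounds for 22 h at 37 °C before the viability read; nearly all actives have a fitted effect of over 30% in size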
Records with an inconclusive call do not appear. Activity calls are given as the source filed them. The call rests on the fitted dose curve; in most records, active means well fitted cell-killing curve with a large enough effect in the repeat runs; inconclusive means weak or mixed curves, or effect the other way; inactive means no such curve, though single readings can be large or run the other way.
propertyName: outcome

Here are 5 compounds together with their reported answers.
{"compound": "ClC(Br)Br", "outcome": "inactive"}
{"compound": "CN1C[C@@H](NS(=O)(=O)N(C)C)C[C@@H]2c3cccc4c3c(cn4C)C[C@H]21", "outcome": "inactive"}
{"compound": "O=C1CN2CCOC2(c2ccccc2Cl)c2cc(Cl)ccc2N1 (stereo unspecified)", "outcome": "inactive"}
{"compound": "OC(c1ccc(F)cc1)(c1cncnc1)c1ccccc1Cl (stereo unspecified)", "outcome": "inactive"}
{"compound": "OC(c1ccccc1)(c1ccccc1)C1CCNCC1", "outcome": "inactive"}

Could you now look at the following compound, please?
In: I have this compound here, O=C1CN=C(c2ccccc2)c2cc([N+](=O)[O-])ccc2N1 , and I need its recorded outcome.
Out: inactive

---

experiment: qHTS assay to identify small molecule antagonists of the retinoic acid receptor (RAR) signaling pathway (AID 1159552; also: nearly all actives have a fitted effect of over 50% in size); conditions: C3RL4 RARE luciferase reporter, retinol-stimulated, 6 h; series mostly up to 92.4 µM
Records with an inconclusive call do not appear. Activity calls are given as the source filed them. The call rests on the fitted dose curve; in most records, active means well fitted inhibition curve with a large enough effect in the repeat runs; inconclusive means weak or mixed curves, or effect the other way; inactive means no such curve, though single readings can be large or run the other way.
propertyName: outcome

Here are 5 compounds together with their reported answers.
{"structureSmiles": "CSc1ccc(C(=O)C(C)(C)N2CCOCC2)cc1", "outcome": "inactive"}
{"structureSmiles": "Cc1nnc2n1-c1sc(CCC(=O)N3CCOCC3)cc1C(c1ccccc1Cl)=NC2", "outcome": "inactive"}
{"structureSmiles": "CC(=O)[C@H]1CC[C@H]2[C@@H]3CC[C@H]4C[C@H](O)CC[C@]4(C)[C@H]3C(=O)C[C@]12C", "outcome": "inactive"}
{"structureSmiles": "ClC(Cl)C(Cl)Cl", "outcome": "inactive"}
{"structureSmiles": "CC(C)CC#N", "outcome": "inactive"}

Could you now look at the following compound, please?
In: I have this compound here, CCOC(=O)C1(c2ccccc2)CCN(CCc2ccc(N)cc2)CC1 , and I need its recorded outcome.
Out: inactive

---

assay: qHTS assay for small molecule disruptors of the mitochondrial membrane potential - cell viability (AID 720634); conditions: HepG2 viability, ATP luminescence (CellTiter-Glo), 1 h; series mostly up to 83.2 µM;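 also: human HepG2 liver cancer cells; nearly all actives have a fitted effect of over 20% in size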
Records with an inconclusive call do not appear. The source made the active and inactive calls. The call rests on the fitted dose curve.
Please reply with one of these outcomes: 1 (yes) for active, 0 (no) for inactive

{"molecule": "O=NN1CCN(N=O)CC1", "discreteLabel": "0 (no)"}
{"molecule": "O=C(CCN1CC1)OCC(CO)(COC(=O)CCN1CC1)COC(=O)CCN1CC1", "discreteLabel": "0 (no)"}
{"molecule": "COc1cc(OC)nc(Oc2cccc(Oc3nc(OC)cc(OC)n3)c2C(=O)O)n1", "discreteLabel": "0 (no)"}
{"molecule": "COC(=O)C(c1ccccc1)C1CCCCN1 (configuration not stated)", "discreteLabel": "0 (no)"}
{"molecule": "CCS(=O)(=O)C(C)(C)S(=O)(=O)CC", "discreteLabel": "0 (no)"}
{"molecule": "CC1=C(C(=O)Nc2ccccc2)S(=O)(=O)CCO1", "discreteLabel": "0 (no)"}
{"molecule": "CCCCOC(=O)c1ccccc1C(=O)O", "discreteLabel": "0 (no)"}
{"molecule": "Nc1cc2c3c(c1)C(c1ccccc1)=N[C@@H](NC(=O)c1cccnc1)C(=O)N3CC2", "discreteLabel": "0 (no)"}

In: Identify the outcome logged in this assay for the molecule shown: O=[N+]([O-])c1ccc(CBr)cc1
Out: 0 (no)

In: Identify the outcome logged in this assay for the molecule shown: COC(C)(C)C
Out: 0 (no)

In: Identify the outcome logged in this assay for the molecule shown: ClC(Br)Br
Out: 0 (no)

The origin of these recorded values is PubChem BioAssay (Tox21).
